# protocolNotes: protein stability index of a GFP-peptide fusion (GPS, HEK-293T) (PSI 1-6); higher = more stable;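 also: 24-mer peptide tiles fused after GFP, lentivirally expressed, FACS-sorted into six equal bins by GFP/DsRed ratio, decoded by Illumina sequencing, PSI is the read-weighted mean bin number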
# conditionContext: treatment: MLN4924 1 uM, 8 h; c terminus: a fixed tail appended
Note to self: class labels come from recorded protein stability index, ranges listed here: LOW (below 3), MID (3 to below 4), HIGH (4 or more)

Request: Categorize the following entry: FHCLWDDSFPEGPERLHAIKEQLI [HDAC6]
Result: LOW

Request: Determine which band this sequence sits in: MAKRIGKDLSNTFAKLEKLTILAK [STX5]
Result: LOW

Request: State the class of the sequence shown: IVRRFLNICENTEGAIAVHCKAGL [CDC14A]
Result: LOW

Request: Band of LLDKAGVPPGVVNIVFGTGPRVGE [ALDH8A1] ?
Result: LOW

Request: For the record CRCVASPPPDAAATAASSSASSPA [SLC25A25] , report the class its protein stability index corresponds to.
Result: HIGH

Request: # bin lookup: classify RSSLLACILLSALGYLLLGAATNV [MFSD9] by its protein stability index
Result: MID

Request: Consider SVEAGGSVHFDGETIEGAPPLWAA [FEM1A] . To which protein stability index class does it belong?
Result: HIGH

Request: Band for ASPVPESSLTADLLSVDAFAAPSP [SNAP91] ?
Result: HIGH

---

# protocolNotes: protein stability index of a GFP-peptide fusion (GPS, HEK-293T) (PSI 1-6); higher = more stable
# conditionContext: treatment: DMSO; c terminus: a fixed tail appended
Label n if protein stability index falls below 3; label y in every other case.

[
  {
    "sequenceText": "TVAGSLNDFSYLHTNCFELSIYVG [CPXM2]",
    "label": "n"
  },
  {
    "sequenceText": "RFYYSEDDHGDECSYTDLLPQDEG [KCNA4]",
    "label": "y"
  }
]

Request: Does the sequence GRSSLTACSLPLCACLLGQKMLRH [PXN] have recorded protein stability index that is 3 or more?
Result: n

Request: Determine whether measured protein stability index meets or exceeds 3 for LLGALVLLGLGVLLFSGGLSESET [PBXIP1]
Result: n

Request: Quick check: does SLDSLDGLSLTDESDSCVSFEAPL [PSD2] have protein stability index greater than or equal to 3?
Result: y

Request: # check: protein stability index of HEEEVKGLQAQIASSGLTVEVDAP [KRT18] is greater than or equal to 3
Result: y

Request: Please tell me: is the sequence MREYKLVVLGSGGVGKSALTVQFV [RAP1B] at or over 3 in terms of protein stability index?
Result: n

Request: Check the entry RPGETGMDVTSRCTLGDPNKLPEG [KLHL20] : does protein stability index equal or exceed 3?
Result: y

Request: Does DVEAWFNTQTEELNQQVVSSSEQL [KRT36] have a reported protein stability index of at least 3?
Result: y

Request: Does protein stability index meet or surpass 3 for EVRLVPVSFEDPEFKSSFSQSFSL [ATE1] ?
Result: n

Request: Answer whether protein stability index of SARIVQVVTAEAVAVLKGEQEKEA [MAP2] is greater than or equal to 3.
Result: y

Request: Evaluate SKCQRLFRSPSMPCSVIRPILKRL [CDC25B] : protein stability index at minimum 3?
Result: n

---

Record form. Attribute: protein stability index. Fill in for each entry.
# protocolNotes: protein stability index of a GFP-peptide fusion (GPS, HEK-293T) (PSI 1-6); higher = more stable
# conditionContext: treatment: DMSO; c terminus: a fixed tail appended
Give bare numbers.

Past entries and their recorded results:
[
  {
    "sequenceText": "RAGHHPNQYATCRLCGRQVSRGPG [ZBED2]",
    "endpoint": "protein stability index",
    "val": 2.35
  },
  {
    "sequenceText": "ILQSPAFCEELESMIQEQFKKGKN [ADD1]",
    "endpoint": "protein stability index",
    "val": 3.53
  },
  {
    "sequenceText": "SHKGAEELALALKGNTTLQQLDLR [LRRC45]",
    "endpoint": "protein stability index",
    "val": 3.99
  },
  {
    "sequenceText": "LNGDYGENIYPYEEDKDEKSSIYE [MIA2]",
    "endpoint": "protein stability index",
    "val": 3.78
  },
  {
    "sequenceText": "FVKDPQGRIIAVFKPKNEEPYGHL [PI4K2A]",
    "endpoint": "protein stability index",
    "val": 2.32
  },
  {
    "sequenceText": "TRKHAHHCHKRRTRSCSSASSRSQ [CLK3]",
    "endpoint": "protein stability index",
    "val": 4.65
  },
  {
    "sequenceText": "LYRDVMLETFGHLLSIGPELPKPE [ZNF8]",
    "endpoint": "protein stability index",
    "val": 2.26
  },
  {
    "sequenceText": "GWPHEDAAQFTDFLIPMLEMVPEK [SRPK2]",
    "endpoint": "protein stability index",
    "val": 3.83
  },
  {
    "sequenceText": "ASTPAQTAAGGQGGPGGPGSDKQQ [NR2F2]",
    "endpoint": "protein stability index",
    "val": 5.58
  },
  {
    "sequenceText": "PGDPSKDRAAKRLSLESEGAGEGA [TPPP]",
    "endpoint": "protein stability index",
    "val": 5.47
  }
]

Need protein stability index for each of these sequences.
1. AQRKEERWDMADNEQVLTTEHEKK [YJU2B]
2. SELTRLIQRIRSEIENVKKQASNL [KRT71]
3. ASQFLASASSSTTCCESTQRSVSD [IRX6]
4. EAALNSKDAALATALGDKKSLEGD [LMNB1]
5. IDKVRFLEQQNQVLETKWELLQQL [KRT71]
6. VGVATARAPLHSVGYTALVGSDAE [SPSB4]
7. KSYNICFELEDSNEIFTQLYRTLF [PDS5B]

Result:
1. 5.57
2. 2.09
3. 5.09
4. 5.52
5. 2.74
6. 4.35
7. 3.05

Provide reported protein stability index for each item, in the same order as listed.
1. GSFNGSEKETMQFLNDRLANYLEK [KRT36]
2. SPSVMRLVHTQEPGEWLELLLEPG [ALKBH7]
3. LDWISYQVEKNKYDASAIDFSRCD [ELF3]
4. SKAFLLQTVDGKHQDLKYISPETM [CDC25B]
5. ATEWQKAGAPPPSGSAVSTAPQQK [SRPK2]

Result:
[3.38, 2.83, 2.93, 3.22, 5.42]

---

# protocolNotes: protein stability index of a GFP-peptide fusion (GPS, HEK-293T) (PSI 1-6); higher = more stable
# conditionContext: treatment: DMSO; c terminus: a fixed tail appended
Please provide measured protein stability index for the entries that follow.
One number for each entry.

Hello, I would appreciate it if you could give protein stability index for each entry below.
1. APAHVDEQVFLYENARSGAEAEPE [ZBED1]
2. HSYNVTQRRPRVLSCLHSVCEQCL [RNF208]
3. IFFMAAFAFSNGYLASLCMCFGPK [SLC29A1]
4. LHKIYLCQSGYFSSMFSGSWKESS [GMCL1]

Result:
1. 5.58
2. 2.87
3. 2.42
4. 2.26

Please look at the items below and tell me protein stability index for each one, in order.
1. LVGDRDVGKSEILESLQDGAAESP [RAB40A]
2. TSGQVVAVKKFVESEDDPVVKKIA [CDKL4]

Result:
5.57
4.66

Each of the following entries comes with a recorded value; kindly state protein stability index for each.
1. DGVKESSESTNTTIEDEDTKVRKQ [CAMK2A]
2. GPDHRLRLWRLFQTLDVNRDGGLC [SLC25A25]
3. AQAAVQGPVGTDFKPLNSTPATTT [ZNF207]
4. QAGDKDLDGQLDFEEFVHYLQDHE [SLC25A25]

Result:
1. 5.65
2. 2.29
3. 4.81
4. 5.19

For each entry beneath this line, provide reported protein stability index.
1. SWREAKVSWFGSPTTSFLSISKLS [PWWP2B]
2. GGAVVANYPYDKSFEHRVRGVRRT [CPN1]
3. RLIKELAKYEYMEEQVILTEKDLL [SAT1]
4. VQLSQIQGLIGSVEEQLAQLRCEM [KRT17]
5. GRLIQLSRDGATGHVLLTDSEFSM [PPFIA4]

Result:
1: 2.15; 2: 4.25; 3: 2.34; 4: 3.04; 5: 2.24

Parameters: items (list). Returns: protein stability index for each item.
1. ILIIQGVLSDINLKKGESECQYYI [NET1]
2. QDEVPDEVENQFILRLPLEHACTV [TAF7L]
3. QFHCHKAVLASCSQYFRSLFSSHP [KLHL14]
4. RMEKGEPYMSIQPAEDPDDYDDGF [SMARCE1]
5. YSYVYQDGLRLLGARARGVAMLGV [SOAT2]
6. ANFIEKVRFLEQQNAALRGELSQA [PRPH]
7. AFDFDYGNCKYKVDCACLKENPEC [KMT2E]

Result:
1: 2.73; 2: 4.39; 3: 2.95; 4: 5.61; 5: 2.55; 6: 3.39; 7: 3.53
